# key: entry, value: relative viability
Test system: NCI-H2009
Assay: relative viability (nuclei count vs DMSO), 5 days (fraction); higher = more cells survive
Settings: first compound 0.253 µM

{"molecule": "O=c1cc(-c2cccc3c2Sc2ccccc2S3)oc(N2CCOCC2)c1 + COc1cccc2cc(-c3nc([C@H]4CC[C@H](C(=O)O)CC4)n4ncnc(N)c34)[nH]c12 [OSI-027] (partner 0.5 µM)", "relative viability": 0.663}
{"molecule": "COc1nc(C)cnc1NS(=O)(=O)c1cccnc1-c1ccc(-c2nnco2)cc1 [Zibotentan] + O=C(CCCCCCC(=O)Nc1ccccc1)NO [Vorinostat] (partner 1 µM)", "relative viability": 0.705}
{"molecule": "O=c1cc(-c2cccc3c2Sc2ccccc2S3)oc(N2CCOCC2)c1 + C[C@]1(O)C[C@@H](c2nc(-c3ccc4ccc(-c5ccccc5)nc4c3)c3c(N)nccn32)C1 [Linsitinib] (partner 1 µM)", "relative viability": 1.22}
{"molecule": "O=c1cc(-c2cccc3c2Sc2ccccc2S3)oc(N2CCOCC2)c1 + Nc1nc2[nH]cc(CCc3ccc(C(=O)N[C@@H](CCC(=O)O)C(=O)O)cc3)c2c(=O)[nH]1 [Pemetrexed] (partner 0.2 µM)", "relative viability": 0.96}
{"molecule": "O=c1cc(-c2cccc3c2Sc2ccccc2S3)oc(N2CCOCC2)c1 + Cc1cc(Nc2cc(N3CCN(C)CC3)nc(Sc3ccc(NC(=O)C4CC4)cc3)n2)n[nH]1 [Tozasertib] (partner 0.1 µM)", "relative viability": 0.725}
{"molecule": "COc1nc(C)cnc1NS(=O)(=O)c1cccnc1-c1ccc(-c2nnco2)cc1 [Zibotentan] + CC(=O)Nc1cccc(-n2c(=O)n(C3CC3)c(=O)c3c(Nc4ccc(I)cc4F)n(C)c(=O)c(C)c32)c1 [Trametinib] (partner 0.02 µM)", "relative viability": 0.258}
{"molecule": "COc1nc(C)cnc1NS(=O)(=O)c1cccnc1-c1ccc(-c2nnco2)cc1 [Zibotentan] + Cc1cc(Nc2cc(N3CCN(C)CC3)nc(Sc3ccc(NC(=O)C4CC4)cc3)n2)n[nH]1 [Tozasertib] (partner 0.1 µM)", "relative viability": 0.72}
{"molecule": "O=c1cc(-c2cccc3c2Sc2ccccc2S3)oc(N2CCOCC2)c1 + N=C(N)NC(=N)NCCc1ccccc1 [Phenformin] (partner 250 µM)", "relative viability": 0.545}
{"molecule": "O=c1cc(-c2cccc3c2Sc2ccccc2S3)oc(N2CCOCC2)c1 + CS(=O)(=O)N1CCN(Cc2cc3nc(-c4cccc5[nH]ncc45)nc(N4CCOCC4)c3s2)CC1 [Pictilisib] (partner 1 µM)", "relative viability": 0.962}
{"molecule": "COc1nc(C)cnc1NS(=O)(=O)c1cccnc1-c1ccc(-c2nnco2)cc1 [Zibotentan] + CS(=O)(=O)CCNCc1ccc(-c2ccc3ncnc(Nc4ccc(OCc5cccc(F)c5)c(Cl)c4)c3c2)o1 [Lapatinib] (partner 2 µM)", "relative viability": 0.82}
